- Tested on: PKC mediated IL-2 production in human primary T cells
- testSummary: IL-2 ELISA, human primary T cell, anti CD3+CD28+ (whole cell functional assay for PKC mediated IL-2 production)
- Type: cell-based
- measurementConditions: human primary T cells stimulated with anti-CD3 + anti-CD28, 24 h, IL-2 by ELISA, 8 pt, read-out: IL2 ELISA, Human primary T cell, anti-CD3 + CD28, 8 pt (IC50)
- Protocol: Human primary T cells were prepared as follows. […] Human primary T cells (100,000 cells per well) were pre-incubated with or without test compound in RPMI-1640 with L-Glutamine and 10% FBS for 1 hour at 37° C. […] Cells were incubated at 37° C. for 24 hours before 100 μL supernatants were harvested for quantification of IL-2 by ELISA using Human IL-2 Duoset ELISA Kit from R and D Systems, Cat. # DY202E. […]
pIC50: −log10 of the molar value.
propertyMeasured: pIC50

COc1ccc(Nc2ncc(Cl)c(NC[C@@H]3CCCN4CCCC[C@H]34)n2)cc1-n1nnnc1C = 7.06
Cc1nnnn1-c1cc(Nc2ncc(F)c(NC[C@@H]3CCCN4CCCC[C@H]34)n2)ccc1F = 6.98
Cc1ccc(Nc2ncc(C)c(NC[C@@H]3CCCN4CCCC[C@H]34)n2)cc1C#N = 5.97
N#Cc1cc(Nc2ncc(F)c(NC[C@@H]3CCCN4CCCC[C@H]34)n2)c(F)cc1C1CC1 = 6.05
COc1cc(Nc2ncc(C)c(NC[C@@H]3CCCN4CCCC[C@H]34)n2)cc(OC)c1 = 5.82

(1) COc1cc(Nc2ncc(F)c(NC[C@@H]3CCCN4CCCC[C@H]34)n2)cc(-n2nnn(C)c2=O)c1
(2) CN(C)c1cnc(Nc2cccc(C#N)c2)nc1NC[C@@H]1CCCN2CCCC[C@H]12
(3) O=C1COc2cc(Nc3ncc(F)c(NC[C@@H]4CCCN5CCCC[C@H]45)n3)ccc2N1CC1CC1
// ranking: key=pIC50, reverse=True Answer by writing out the labels in the requested order.
3, 1, 2
(3: 6.77, 1: 6.39, 2: 5.02)

(a) Cc1nnnn1-c1ccc(F)c(Nc2ncc(C#N)c(NC[C@@H]3CCCN4CCCC[C@H]34)n2)c1
(b) Cc1cnc(Nc2cc(C#N)c(C3CC3)cc2F)nc1NC[C@@H]1CCCN2CCCC[C@H]12
Higher pIC50 between a and b ? The response must carry the label of the picked entry.
a
(a: 7.12, b: 6.58)

(P) COc1cc(Nc2ncc(N(C)C)c(NC[C@@H]3CCCN4CCCC[C@H]34)n2)cc(-n2nnnc2C)c1
(Q) COCCOCCOc1cc(F)c(Nc2ncc(C#N)c(NC[C@@H]3CCCN4CCCC[C@H]34)n2)cc1-n1nnn(C)c1=O
Higher pIC50 between P and Q ? The response must carry the label of the picked entry.
Q
(Q: 6.00, P: 5.10)

(A) COc1ccc(Nc2ncc(C(F)(F)F)c(NC[C@@H]3CCCN4CCCC[C@H]34)n2)cc1-n1nnnc1C
(B) N#Cc1cnc(Nc2cc(-n3nnnc3C3CC3)ccc2F)nc1NC[C@@H]1CCCN2CCCC[C@H]12
(C) COc1cc(Nc2ncc(C(F)(F)F)c(NC[C@@H]3CCCN4CCCC[C@H]34)n2)cc(-n2nnnc2C)c1
// ranking: key=pIC50, reverse=True Answer by writing out the labels in the requested order.
B, A, C

* * *

- Tested on: PKC mediated IL-2 production in human primary T cells
- testSummary: IL-2 ELISA, human primary T cell, anti CD3+CD28+ (whole cell functional assay for PKC mediated IL-2 production)
- Type: cell-based
- measurementConditions: human primary T cells stimulated with anti-CD3 + anti-CD28, 24 h, IL-2 by ELISA, 8 pt, read-out: IL2 ELISA, Human primary T cell, anti-CD3 + CD28, 8 pt (IC50)
propertyMeasured: IC50 (nM)

Please review the following examples before continuing.
OCCOc1ccc(Nc2ncc(F)c(NC[C@@H]3CCCN4CCCC[C@H]34)n2)cc1-n1cnnn1 = 49.3
N#Cc1cc(Nc2nccc(NC[C@@H]3CCCN4CCCC[C@H]34)n2)c(F)cc1C1CC1 = 3800
Cc1ccc(Nc2ncc(F)c(NC[C@@H]3CCCN4CCCC[C@H]34)n2)cc1-n1cnnn1 = 142
Cc1cnc(Nc2ccc3oc(=O)[nH]c3c2)nc1NC[C@@H]1CCCN2CCCC[C@H]12 = 3750
Fc1cnc(Nc2ccc(N3CCOCC3)c(C(F)(F)F)c2)nc1NC[C@@H]1CCCN2CCCC[C@H]12 = 554
N#Cc1cccc(Nc2ncc(Cl)c(NC[C@@H]3CCCN4CCCC[C@H]34)n2)c1 = 418

(1) Cn1nnn(-c2cc(Nc3ncc(C#N)c(NC[C@@H]4CCCN5CCCC[C@H]45)n3)c(F)cc2O)c1=O
(2) Cc1ccc(Nc2ncc(Cl)c(NC[C@@H]3CCCN4CCCC[C@H]34)n2)cc1C#N
Kindly identify the item with the lower IC50 figure among these two: 1 and 2 The response must carry the label of the picked entry.
2
(2: 267 nM, 1: 1940 nM)

(a) CC1(C)Oc2cc(Nc3ncc(F)c(NC[C@@H]4CCCN5CCCC[C@H]45)n3)cnc2N(CC2CC2)C1=O
(b) N#Cc1cc(Nc2ncc(C(F)(F)F)c(NC[C@@H]3CCCN4CCCC[C@H]34)n2)ccc1C1CC1
(c) Cn1nnn(-c2cc(Nc3ncc(F)c(NC[C@@H]4CCCN5CCCC[C@H]45)n3)c(F)cc2OCC(C)(C)O)c1=O
(d) COc1cnc(Nc2ccc(F)c(-n3nnnc3C)c2)nc1NC[C@@H]1CCCN2CCCC[C@H]12
(e) Cc1cnc(Nc2cccc(C#N)c2)nc1NC[C@@H]1CCCN2CCCC[C@H]12
List by increasing IC50. Answer by writing out the labels in the requested order.
c, a, e, d, b

(a) OCCOc1ccc(Nc2nccc(NC[C@@H]3CCCN4CCCC[C@H]34)n2)cc1-n1cnnn1
(b) Cc1cnc(Nc2ccc(F)c(-n3nnnc3C)c2)nc1NC[C@@H]1CCCN2CCCC[C@H]12
Kindly identify the item with the lower IC50 figure among these two: a and b The response must carry the label of the picked entry.
b
(b: 1870 nM, a: 3550 nM)

* * *

- Test system: PKC mediated IL-2 production in human primary T cells
- testSummary: IL-2 ELISA, human primary T cell, anti CD3+CD28+ (whole cell functional assay for PKC mediated IL-2 production)
- Format: cell-based
- measurementConditions: human primary T cells stimulated with anti-CD3 + anti-CD28, 24 h, IL-2 by ELISA, 8 pt, read-out: IL2 ELISA, Human primary T cell, anti-CD3 + CD28, 8 pt (IC50)
propertyMeasured: IC50 (nM)

Fc1ccc(-n2nnnc2C2CC2)cc1Nc1ncc(F)c(NC[C@@H]2CCCN3CCCC[C@H]23)n1 = 224

(P) C[C@@H](O)COc1cc(F)c(Nc2ncc(C#N)c(NC[C@@H]3CCCN4CCCC[C@H]34)n2)cc1-n1nnn(C)c1=O
(Q) N#Cc1cccc(Nc2nccc(NC[C@@H]3CCCN4CCCC[C@H]34)n2)c1
(R) Cn1nnn(-c2cc(Nc3ncc(C#N)c(NC[C@@H]4CCCN5CCCC[C@H]45)n3)c(F)cc2OC(C)(C)CO)c1=O
List by increasing IC50. Answer by writing out the labels in the requested order.
P, R, Q
(P: 147 nM, R: 306 nM, Q: 2530 nM)

* * *

- Tested on: PKC mediated IL-2 production in human primary T cells
- testSummary: IL-2 ELISA, human primary T cell, anti CD3+CD28+ (whole cell functional assay for PKC mediated IL-2 production)
- Assay type: cell-based
- measurementConditions: human primary T cells stimulated with anti-CD3 + anti-CD28, 24 h, IL-2 by ELISA, 8 pt, read-out: IL2 ELISA, Human primary T cell, anti-CD3 + CD28, 8 pt (IC50)
propertyMeasured: IC50 (nM)

Please review the following examples before continuing.
CN(C)c1cnc(Nc2cc(-n3nnn(C)c3=O)c(C3CC3)cc2F)nc1NC[C@@H]1CCCN2CCCC[C@H]12 = 8260
Cn1nnn(-c2cc(Nc3ncc(F)c(NC[C@@H]4CCCN5CCCC[C@H]45)n3)c(F)cc2C2CC2)c1=O = 1680
CCOC(=O)C(C)(C)Oc1cc(F)c(Nc2ncc(C#N)c(NC[C@@H]3CCCN4CCCC[C@H]34)n2)cc1-n1nnn(C)c1=O = 1140
Cc1nnnn1-c1ccc(F)c(Nc2ncc(Cl)c(NC[C@@H]3CCCN4CCCC[C@H]34)n2)c1 = 112

(a) N#Cc1cc(Nc2ncc(C(F)(F)F)c(NC[C@@H]3CCCN4CCCC[C@H]34)n2)c(F)cc1C1CC1
(b) CN(C)c1cnc(Nc2cc(C#N)c(C3CC3)cc2F)nc1NC[C@@H]1CCCN2CCCC[C@H]12
(c) OCCOc1ccc(Nc2ncc(Cl)c(NC[C@@H]3CCCN4CCCC[C@H]34)n2)cc1-n1cnnn1
(d) Cc1cnc(Nc2cc(-n3nnnc3C)ccc2F)nc1NC[C@@H]1CCCN2CCCC[C@H]12
(e) COc1ccc(Nc2nccc(NC[C@@H]3CCCN4CCCC[C@H]34)n2)cc1-n1nnnc1C
// ranking: key=IC50, reverse=True Answer by writing out the labels in the requested order.
a, b, d, e, c
(a: 10700 nM, b: 1740 nM, d: 1160 nM, e: 532 nM, c: 17.5 nM)

(A) C[C@H](O)COc1cc(F)c(Nc2ncc(C#N)c(NC[C@@H]3CCCN4CCCC[C@H]34)n2)cc1-n1nnn(C)c1=O
(B) Cc1ccc(Nc2ncc(N(C)C)c(NC[C@@H]3CCCN4CCCC[C@H]34)n2)cc1-n1cnnn1
(C) CC(O)COc1cc(F)c(Nc2ncc(C#N)c(NC[C@@H]3CCCN4CCCC[C@H]34)n2)cc1-n1nnn(C)c1=O (stereo partly drawn)
List by increasing IC50. Answer by writing out the labels in the requested order.
A, C, B
(A: 66.2 nM, C: 176 nM, B: 11000 nM)
